Listed here: items and their measured Emax.
target: D(2) dopamine receptor (Homo sapiens, UniProt P14416); assay: Intrinsic activity at human dopamine D2L receptor expressed in HEK293 cells co-transfected with Galphai2 assessed as [35S]GTPgammaS binding after 30 mins by [35S]GTPgammaS incorporation assay relative to quinpirole; format: functional, cell-based; conditions: in the assay text read “after 75 mins” for “after 30 mins”
Sequence (P14416 whole entry): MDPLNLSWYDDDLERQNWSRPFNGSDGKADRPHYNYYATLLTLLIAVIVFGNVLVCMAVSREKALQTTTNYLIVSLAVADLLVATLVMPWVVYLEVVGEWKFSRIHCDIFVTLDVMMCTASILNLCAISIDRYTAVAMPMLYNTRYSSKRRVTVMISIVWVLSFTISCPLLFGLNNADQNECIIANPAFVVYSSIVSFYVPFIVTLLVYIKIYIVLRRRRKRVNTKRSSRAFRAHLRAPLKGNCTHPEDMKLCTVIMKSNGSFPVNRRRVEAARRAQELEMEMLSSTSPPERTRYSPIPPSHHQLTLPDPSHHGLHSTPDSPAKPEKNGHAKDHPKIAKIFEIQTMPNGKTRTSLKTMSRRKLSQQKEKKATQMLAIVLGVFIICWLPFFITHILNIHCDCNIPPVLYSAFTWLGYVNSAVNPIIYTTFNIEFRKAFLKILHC
Note: unit % is implicit; provide only the numeric part.

{"columns": ["structure smiles", "Emax [%]"],
 "data": [
  ["CCCCn1cc(CCCOc2ccc(C(=O)NCCCCN(CCC)CCc3ccc(O)c4[nH]c(=O)ccc34)cc2OC)nn1", 84]
]}

Reading of Emax for `C#CC1=CC[C@H](N(CCC)CCCCNC(=O)c2ccc(-c3ccccc3)cc2)CC1` with D(2) dopamine receptor (Homo sapiens, UniProt P14416): 73

Reading of Emax for `C#CC1=CC[C@H](N(CCC)CCCCNC(=O)c2ccc(OCCCc3cn(CCCC)nn3)c(OC)c2)CO1` with D(2) dopamine receptor (Homo sapiens, UniProt P14416): 84

Reading of Emax for `C#CC1=CC[C@@H](N(CCC)CCCCNC(=O)c2ccc(OCCCc3cn(CCCC)nn3)c(OC)c2)CO1` with D(2) dopamine receptor (Homo sapiens, UniProt P14416): 61

Tested system D(2) dopamine receptor (Homo sapiens, UniProt P14416); Emax recorded for `CCCCn1cc(CCCOc2ccc(C(=O)NCCCCN(CCC)[C@H]3CCc4c(O)cccc4C3)cc2OC)nn1` was 99
